The following variants are listed with their measured protein stability index values.
B1: IKZF1 (parent)
chain: RDPFECNMCGYHSQDRYEFSSHIT

Variants of: B1
Experiment: protein stability index of a GFP-peptide fusion (GPS, HEK-293T) (PSI 1-6); higher = more stable;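 further: lentivirally expressed fusions sorted by FACS into six bins by GFP to DsRed ratio, PSI derived from sequencing read proportions per bin multiplied by bin number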
Conditions: c terminus: a fixed tail appended
assay-metric: protein stability index

# mutant-id, assay-metric, observed-measurement
measured = [
    ("H12G", "protein stability index", 2.25),
    ("I23F", "protein stability index", 2.03),
    ("F4V", "protein stability index", 2.2),
    ("I23K", "protein stability index", 2.75),
    ("D15A", "protein stability index", 1.98),
    ("Y17N", "protein stability index", 2.83),
    ("S13H", "protein stability index", 3.15),
    ("C6V", "protein stability index", 2.5),
    ("S13L", "protein stability index", 1.75),
    ("T24H", "protein stability index", 2.38),
    ("Q14Y", "protein stability index", 2.31),
    ("M8K", "protein stability index", 2.52),
    ("S13F", "protein stability index", 1.78),
    ("D15W", "protein stability index", 2.13),
    ("E5N", "protein stability index", 1.71),
    ("R16S", "protein stability index", 1.98),
    ("C6D", "protein stability index", 3.8),
    ("D2P", "protein stability index", 1.98),
    ("T24R", "protein stability index", 2.24),
    ("H22F", "protein stability index", 1.97),
    ("F4E", "protein stability index", 2.66),
    ("P3A", "protein stability index", 1.64),
]
